Measured inhibition at 1.11 µM accompanies every entry in the list below.
# TESTED ON: VPS34 (Homo sapiens)
# Construct: GST (N); host or cells: SF9 insect cells (baculovirus)
# Sequence (Q8NEB9 whole entry): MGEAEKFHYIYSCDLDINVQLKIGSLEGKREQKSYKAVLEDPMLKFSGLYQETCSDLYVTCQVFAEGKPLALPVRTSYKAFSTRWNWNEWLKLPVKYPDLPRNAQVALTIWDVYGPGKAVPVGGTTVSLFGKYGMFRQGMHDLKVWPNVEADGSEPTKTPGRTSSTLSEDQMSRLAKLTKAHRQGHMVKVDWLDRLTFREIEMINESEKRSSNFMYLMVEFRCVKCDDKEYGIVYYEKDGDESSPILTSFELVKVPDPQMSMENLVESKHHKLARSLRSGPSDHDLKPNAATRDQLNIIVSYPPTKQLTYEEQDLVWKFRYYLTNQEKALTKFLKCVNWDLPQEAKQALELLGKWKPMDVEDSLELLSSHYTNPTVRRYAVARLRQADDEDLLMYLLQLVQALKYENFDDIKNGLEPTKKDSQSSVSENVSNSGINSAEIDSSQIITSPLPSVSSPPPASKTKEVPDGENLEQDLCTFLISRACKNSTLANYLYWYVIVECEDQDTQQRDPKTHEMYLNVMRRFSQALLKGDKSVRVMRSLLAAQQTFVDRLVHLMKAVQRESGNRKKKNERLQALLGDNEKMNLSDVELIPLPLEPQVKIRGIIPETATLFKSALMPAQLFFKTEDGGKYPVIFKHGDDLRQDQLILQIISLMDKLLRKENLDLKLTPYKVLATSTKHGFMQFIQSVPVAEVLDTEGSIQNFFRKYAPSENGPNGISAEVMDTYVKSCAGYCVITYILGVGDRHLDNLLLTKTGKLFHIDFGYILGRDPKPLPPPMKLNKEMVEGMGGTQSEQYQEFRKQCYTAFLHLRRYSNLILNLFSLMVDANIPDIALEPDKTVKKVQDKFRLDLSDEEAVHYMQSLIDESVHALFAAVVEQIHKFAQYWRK
# TEST METHOD NOTES: Human VPS34 enzyme assay (Adapta TR-FRET)
# Format: biochemical
# COND: 1 h; at a 1.11 μM concentration; read-out: VPS34 Percent Inhibition

[
  {
    "COMPOUND STRUCTURE": "CC(=O)Nc1cc(-n2cc(-c3ncn[nH]3)c(-c3ccnc(Cl)c3)n2)c(C)cn1",
    "inhibition at 1.11 µM": "54%"
  },
  {
    "COMPOUND STRUCTURE": "CC(=O)Nc1cc(-n2cc(-c3nc[nH]n3)c(-c3ccccc3S(C)(=O)=O)c2)ccn1",
    "inhibition at 1.11 µM": "> 99%"
  },
  {
    "COMPOUND STRUCTURE": "CCc1ccccc1-c1nn(-c2cc(NC(C)=O)ncc2C)cc1-c1nc[nH]n1",
    "inhibition at 1.11 µM": "94%"
  },
  {
    "COMPOUND STRUCTURE": "COC(=O)Nc1cc(-n2cc(-c3ncc[nH]3)c(-c3ccccc3Cl)n2)c(C)cn1",
    "inhibition at 1.11 µM": "> 99%"
  },
  {
    "COMPOUND STRUCTURE": "CC(=O)Nc1cc(-n2cc(-c3nc[nH]n3)c(-c3ccccc3Cl)n2)c(F)cn1",
    "inhibition at 1.11 µM": "> 99%"
  },
  {
    "COMPOUND STRUCTURE": "CC(=O)Nc1cc(-n2cc(-c3nc[nH]n3)c(-c3ccccc3Cl)n2)ccn1",
    "inhibition at 1.11 µM": "> 99%"
  },
  {
    "COMPOUND STRUCTURE": "CC(=O)Nc1cc(-n2cc(-c3nc[nH]n3)c(-c3ccccc3C#N)n2)c(C)cn1",
    "inhibition at 1.11 µM": "> 99%"
  },
  {
    "COMPOUND STRUCTURE": "Cc1cnc(NC(=O)C2CC2)cc1-n1cc(-c2ncc[nH]2)c(-c2ccccc2Cl)c1",
    "inhibition at 1.11 µM": "> 99%"
  },
  {
    "COMPOUND STRUCTURE": "CC(=O)Nc1cc(-n2cc(-c3nc[nH]n3)c(-c3ccccc3Cl)c2)c(C)cn1",
    "inhibition at 1.11 µM": "> 99%"
  }
]

---

# TESTED ON: VPS34 (Homo sapiens)
# Construct: GST (N); host or cells: SF9 insect cells (baculovirus)
# TEST METHOD NOTES: Human VPS34 enzyme assay (Adapta TR-FRET)
# Type: biochemical
# COND: 1 h; at a 1.11 μM concentration; read-out: VPS34 Percent Inhibition
READOUT TYPE: inhibition at 1.11 µM

[
  {
    "COMPOUND": "COCCC(=O)Nc1cc(-n2cc(-c3nc[nH]n3)c(-c3ccccc3Cl)c2)c(C)cn1 [I-74]",
    "TESTED ON": "VPS34 (Homo sapiens)",
    "VALUE REPORTED": "> 99%"
  },
  {
    "COMPOUND": "CC(=O)Nc1cc(-n2cc(C(N)=O)c(-c3ccccc3Cl)c2)ccn1 [I-2]",
    "TESTED ON": "VPS34 (Homo sapiens)",
    "VALUE REPORTED": "> 99%"
  },
  {
    "COMPOUND": "CC(=O)Nc1cc(-n2cc(C(N)=O)c(-c3ccccc3Cl)n2)c(Cl)cn1 [I-9]",
    "TESTED ON": "VPS34 (Homo sapiens)",
    "VALUE REPORTED": "> 99%"
  },
  {
    "COMPOUND": "Cc1cnc(NC(=O)C2CC2)cc1-n1cc(-c2nc[nH]n2)c(-c2ccc(Cl)cc2Cl)n1 [I-67]",
    "TESTED ON": "VPS34 (Homo sapiens)",
    "VALUE REPORTED": "> 99%"
  },
  {
    "COMPOUND": "Cc1cnc(N)cc1-n1cc(C(N)=O)c(-c2cc(CN3CCCC3)ccc2Cl)c1 [I-75]",
    "TESTED ON": "VPS34 (Homo sapiens)",
    "VALUE REPORTED": "15%"
  },
  {
    "COMPOUND": "O=C(Nc1cc(-n2cc(-c3nc[nH]n3)c(-c3ccccc3Cl)n2)ccn1)C1CC1 [I-23]",
    "TESTED ON": "VPS34 (Homo sapiens)",
    "VALUE REPORTED": "> 99%"
  },
  {
    "COMPOUND": "CC(=O)Nc1cc(-n2cc(-c3nnc[nH]3)c(-c3ccccc3Cl)c2)ccn1 [I-22]",
    "TESTED ON": "VPS34 (Homo sapiens)",
    "VALUE REPORTED": "> 99%"
  },
  {
    "COMPOUND": "NC(=O)c1cn(-c2ccnc3[nH]ccc23)nc1-c1ccccc1Cl [I-7]",
    "TESTED ON": "VPS34 (Homo sapiens)",
    "VALUE REPORTED": "88%"
  },
  {
    "COMPOUND": "COCCC(=O)Nc1cc(-n2cc(C(N)=O)c(-c3ccccc3Cl)c2)c(C)cn1 [I-79]",
    "TESTED ON": "VPS34 (Homo sapiens)",
    "VALUE REPORTED": "> 99%"
  },
  {
    "COMPOUND": "CC(=O)Nc1cc(-n2cc(C(=O)O)c(-c3ccccc3Cl)n2)c(C)cn1 [I-6]",
    "TESTED ON": "VPS34 (Homo sapiens)",
    "VALUE REPORTED": "97%"
  },
  {
    "COMPOUND": "COc1ccc(-c2nn(-c3cc(NC(C)=O)ncc3C)cc2-c2nc[nH]n2)c(Cl)c1 [I-35]",
    "TESTED ON": "VPS34 (Homo sapiens)",
    "VALUE REPORTED": "> 99%"
  },
  {
    "COMPOUND": "CCN(CC)Cc1ccc(Cl)c(-c2nn(-c3cc(NC(C)=O)ncc3C)cc2-c2nc[nH]n2)c1 [I-58]",
    "TESTED ON": "VPS34 (Homo sapiens)",
    "VALUE REPORTED": "> 99%"
  },
  {
    "COMPOUND": "Cc1cnc(N)cc1-n1cc(-c2nnc[nH]2)c(-c2ccccc2Cl)n1 [I-108]",
    "TESTED ON": "VPS34 (Homo sapiens)",
    "VALUE REPORTED": "10%"
  },
  {
    "COMPOUND": "Cc1cnc(NC(=O)C2CC2)cc1-n1cc(C(N)=O)c(-c2ccccc2Cl)n1 [I-34]",
    "TESTED ON": "VPS34 (Homo sapiens)",
    "VALUE REPORTED": "92%"
  },
  {
    "COMPOUND": "CC(=O)Nc1cc(-n2nc(-c3ccccc3Cl)c(-c3nc[nH]n3)c2Br)c(Br)cn1 [I-4]",
    "TESTED ON": "VPS34 (Homo sapiens)",
    "VALUE REPORTED": "18%"
  },
  {
    "COMPOUND": "COC(=O)Nc1cc(-n2cc(-c3nc[nH]n3)c(-c3ccccc3Cl)n2)c(C)cn1 [I-45]",
    "TESTED ON": "VPS34 (Homo sapiens)",
    "VALUE REPORTED": "> 99%"
  },
  {
    "COMPOUND": "Cc1cnc(NC(=O)OCCF)cc1-n1cc(-c2nc[nH]n2)c(-c2ccccc2Cl)c1 [I-81]",
    "TESTED ON": "VPS34 (Homo sapiens)",
    "VALUE REPORTED": "> 99%"
  },
  {
    "COMPOUND": "CC(=O)Nc1cc(-n2cc(C(N)=O)c(-c3ccc(Cl)cc3Cl)n2)ccn1 [I-13]",
    "TESTED ON": "VPS34 (Homo sapiens)",
    "VALUE REPORTED": "> 99%"
  }
]
